test: Rotating rod test, muscle strength and coordination
Assay type: in vivo
condition-info: in vivo, intraperitoneal; i.p. 50, 100, 250 and 500 mg/kg; 30-180 min; probit analysis

# structure-smiles, ED50
rows = [
    ("NC(=O)CN1C[C@H](c2ccccc2)CC1=O", "> 500 mg/kg"),
]

---

test: Traction test, muscle strength and coordination
Assay type: in vivo
condition-info: in vivo, intraperitoneal; i.p. 50, 100, 250 and 500 mg/kg; 30-180 min; probit analysis

# molecule, ED50
rows = [
    ("NC(=O)CN1C[C@H](c2ccccc2)CC1=O [S-phenotropil]", "> 500 mg/kg"),
]

---

test: Cylinder test, muscle strength and coordination
Type: in vivo
condition-info: in vivo, intraperitoneal; i.p. 50, 100, 250 and 500 mg/kg; 30-180 min; probit analysis

# compound, ED50
records = [
    ("NC(=O)CN1C[C@H](c2ccccc2)CC1=O [S-phenotropil]", "> 500 mg/kg"),
]

This collection of values is drawn from patent US20160250185A1.
